experimental-target: endothelin receptor A (ETA) (Sus scrofa)
Construct: A membrane fraction prepared from the porcine heart; from tissue; host or cells: porcine heart membrane fraction
test-details: Assay of affinity for receptor (1): binding activity on ETA receptor, 125I-labeled endothelin-1, porcine heart membrane fraction
Set-up: key: relative specific activity; reference cyclic pentapeptide ETA binding = 1.0
stated-conditions: specific activity, taking the binding activity of control cyclo[-D-Glu-Ala-D-aIle-Leu-D-Trp-] on receptor A as 1.0, 25°C, 1 hour
Non-standard residues stand in square brackets, D forms with d. Residues, ends and D or L forms follow the SMILES beside them. *: point of attachment. X3 = O=C(Cc1c[nH]c2ccccc12)*; Orn = NCCC[C@H](N)C(=O)O; For = O=C*
readout-type: Binding Activity on ET Receptor (R. act.) ETA

Study these solved cases before continuing.
CC(C)C[C@@H]1NC(=O)[C@@H](CC(C)C)NC(=O)[C@H](CC(=O)O)NC(=O)[C@H](CCCNC(=O)Cc2c[nH]c3ccccc23)NC(=O)[C@@H](CC(=O)O)NC(=O)[C@@H](Cc2c[nH]c3ccccc23)NC1=O [Example 82] (cyclo(D[dL]L[dW][dD][Orn](X3))); 240
CC(C)C[C@@H]1NC(=O)[C@@H](CC(C)C)NC(=O)[C@H](Cc2c[nH]c3ccccc23)NC(=O)[C@H](CC(=O)O)NC(=O)[C@@H](CC(=O)O)NC(=O)[C@@H](Cc2c[nH]c3ccccc23)NC1=O [Example 33, Cyclo[-D-Asp-Asp-Trp-D-Leu-Leu-D-Trp-]] (cyclo(DW[dL]L[dW][dD])); 2.9
CC(C)C[C@@H]1NC(=O)[C@@H](CC(C)C)NC(=O)[C@H](CC(=O)O)NC(=O)[C@H](Cc2cn(C=O)c3ccccc23)NC(=O)[C@@H](CC(=O)O)NC(=O)[C@@H](Cc2c[nH]c3ccccc23)NC1=O [Example 22] (cyclo(D[dL]L[dW][dD]W(For))); 8.3

Note: attention shifts to another entry.
Consider the molecule CC(C)C[C@@H]1NC(=O)[C@@H](CC(C)C)NC(=O)[C@H](CC(=O)O)NC(=O)[C@H](Cc2c[nH]cn2)NC(=O)[C@@H](CC(=O)O)NC(=O)[C@@H](Cc2c[nH]c3ccccc23)NC1=O [Example 83, Cyclo[-D-Asp-His-Asp-D-Leu-Leu-D-Trp-]] (cyclo(D[dL]L[dW][dD]H)) and give its recorded Binding Activity on ET Receptor (R. act.) ETA.
15

----------
Tested on: ETB
test-details: ETB radio receptor assay *2, 125I-endothelin-1, guinea pig kidney crude membrane fraction
Format: binding, Guinea pigs
stated-conditions: relative activity, 37 °C, 90 minutes
Non-standard residues stand in square brackets, D forms with d. Residues, ends and D or L forms follow the SMILES beside them. d2Thi = N[C@H](Cc1cccs1)C(=O)O; Aze = O=C(O)[C@@H]1CCN1
readout-type: Binding Activity on ET Receptor (R. act.) ETB*2

CC(C)C[C@@H]1NC(=O)[C@@H](Cc2cccs2)NC(=O)[C@H](CC(=O)O)NC(=O)[C@H](Cc2c[nH]c3ccccc23)NC(=O)[C@@H](CC(=O)O)NC(=O)[C@@H](Cc2c[nH]c3ccccc23)NC1=O [Example 50, Cyclo[-D-Asp-Trp-Asp-D-Thi-Leu-D-Trp-]] (cyclo(D[d2Thi]L[dW][dD]W)); 57

Consider the compound CC(C)C[C@@H]1NC(=O)[C@@H](CC(C)C)NC(=O)[C@H](CCC(=O)O)NC(=O)[C@H](C)NC(=O)[C@@H](CC(=O)O)NC(=O)[C@@H](Cc2c[nH]c3ccccc23)NC1=O [Example 3, cyclo[-D-Asp-Ala-Glu-D-Leu-Leu-D-Trp-]] (cyclo(AE[dL]L[dW][dD])) and give its recorded Binding Activity on ET Receptor (R. act.) ETB*2.
23

Consider the compound CC(C)C[C@@H]1NC(=O)[C@@H](CC(C)C)NC(=O)[C@H](CC(=O)O)NC(=O)[C@@H]2CCN2C(=O)[C@@H](CC(=O)O)NC(=O)[C@@H](Cc2c[nH]c3ccccc23)NC1=O [Example 25, Cyclo[-D-Asp-Azc-Asp-D-Leu-Leu-D-Trp-]] (cyclo([Aze]D[dL]L[dW][dD])) and give its recorded Binding Activity on ET Receptor (R. act.) ETB*2.
57

Consider the compound CC(C)C[C@@H]1NC(=O)[C@@H](CC(C)C)NC(=O)[C@@H]2CCCN2C(=O)[C@H](Cc2c[nH]c3ccccc23)NC(=O)[C@@H](CC(=O)O)NC(=O)[C@@H](Cc2c[nH]c3ccccc23)NC1=O [Example 36, Cyclo[-D-Asp-Trp-Pro-D-Leu-Leu-D-Trp-]] (cyclo(L[dW][dD]WP[dL])) and give its recorded Binding Activity on ET Receptor (R. act.) ETB*2.
42

----------
experimental-target: endothelin receptor A (ETA) (Sus scrofa)
Construct: A membrane fraction prepared from the porcine heart; from tissue; host or cells: porcine heart membrane fraction
Sequence (Q29010 21-427): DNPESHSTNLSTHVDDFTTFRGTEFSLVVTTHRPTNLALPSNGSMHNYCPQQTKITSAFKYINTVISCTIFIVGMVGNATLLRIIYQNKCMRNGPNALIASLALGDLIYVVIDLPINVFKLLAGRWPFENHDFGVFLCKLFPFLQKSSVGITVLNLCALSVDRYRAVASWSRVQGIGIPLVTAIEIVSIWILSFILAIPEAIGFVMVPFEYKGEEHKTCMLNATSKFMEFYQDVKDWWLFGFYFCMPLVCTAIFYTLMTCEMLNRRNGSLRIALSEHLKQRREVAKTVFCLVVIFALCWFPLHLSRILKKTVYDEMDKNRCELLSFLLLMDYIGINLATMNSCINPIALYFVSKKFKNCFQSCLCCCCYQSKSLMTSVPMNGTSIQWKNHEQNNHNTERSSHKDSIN
test-details: Assay of affinity for receptor (1): binding activity on ETA receptor, 125I-labeled endothelin-1, porcine heart membrane fraction
Set-up: key: relative specific activity; reference cyclic pentapeptide ETA binding = 1.0
stated-conditions: specific activity, taking the binding activity of control cyclo[-D-Glu-Ala-D-aIle-Leu-D-Trp-] on receptor A as 1.0, 25°C, 1 hour
Non-standard residues stand in square brackets, D forms with d. Residues, ends and D or L forms follow the SMILES beside them. NMeL = CN[C@@H](CC(C)C)C(=O)O; Aze = O=C(O)[C@@H]1CCN1
readout-type: Binding Activity on ET Receptor (R. act.) ETA
Give the figure only, with no unit attached.

CC(C)C[C@@H]1NC(=O)[C@@H](CC(C)C)NC(=O)[C@H](CC(=O)O)NC(=O)[C@H](C)NC(=O)[C@@H](CC(=O)O)NC(=O)[C@@H](Cc2c[nH]c3ccccc23)NC1=O [Example 1, cyclo[-D-Asp-Ala-Asp-D-Leu-Leu-D-Trp-]] (cyclo(AD[dL]L[dW][dD])); 9.7
CC(C)C[C@@H]1NC(=O)[C@@H](CC(C)C)NC(=O)[C@H](CC(=O)O)NC(=O)[C@H](CC(=O)O)NC(=O)[C@@H](CC(=O)O)NC(=O)[C@@H](Cc2c[nH]c3ccccc23)NC1=O [Example 16, Cyclo[-D-Asp-Asp-Asp-D-Leu-Leu-D-Trp-]] (cyclo(DD[dL]L[dW][dD])); 10
CC(C)C[C@@H]1NC(=O)[C@@H](CC(C)C)NC(=O)CNC(=O)[C@H](C)NC(=O)[C@@H](CCC(=O)O)NC(=O)[C@@H](Cc2c[nH]c3ccccc23)NC1=O [Example 40, Cyclo[-D-Glu-Ala-Gly-D-Leu-Leu-D-Trp-]] (cyclo(AG[dL]L[dW][dE])); 1.4
CC(C)C[C@@H]1NC(=O)[C@@H](CC(C)C)NC(=O)[C@@H]2CCCN2C(=O)[C@H](Cc2c[nH]c3ccccc23)NC(=O)[C@@H](CC(=O)O)NC(=O)[C@@H](Cc2c[nH]c3ccccc23)NC1=O [Example 36, Cyclo[-D-Asp-Trp-Pro-D-Leu-Leu-D-Trp-]] (cyclo(L[dW][dD]WP[dL])); 17
CC(C)C[C@@H]1NC(=O)[C@@H](CC(C)C)NC(=O)[C@H](CC(=O)O)NC(=O)[C@H](CC(C)C)N(C)C(=O)[C@@H](CC(=O)O)NC(=O)[C@@H](Cc2c[nH]c3ccccc23)NC1=O [Example 47] (cyclo(D[dL]L[dW][dD][NMeL])); 6.8
CC(C)C[C@@H]1NC(=O)[C@@H](CC(C)C)NC(=O)[C@H](C)NC(=O)[C@H](CCC(=O)O)NC(=O)[C@@H](CC(=O)O)NC(=O)[C@@H](Cc2c[nH]c3ccccc23)NC1=O [Example 7, cyclo[-D-Asp-Glu-Ala-D-Leu-Leu-D-Trp-]] (cyclo(A[dL]L[dW][dD]E)); 6.5

Note: attention shifts to another entry.
Consider the compound CC(C)C[C@@H]1NC(=O)[C@@H](CC(C)C)NC(=O)[C@H](CC(=O)O)NC(=O)[C@@H]2CCN2C(=O)[C@@H](CC(=O)O)NC(=O)[C@@H](Cc2c[nH]c3ccccc23)NC1=O [Example 25, Cyclo[-D-Asp-Azc-Asp-D-Leu-Leu-D-Trp-]] (cyclo([Aze]D[dL]L[dW][dD])) and give its recorded Binding Activity on ET Receptor (R. act.) ETA.
30
